# System: Staphylococcus aureus SAU.42 (ATCC 29213)
# Format: cell-based
# stated.conditions: ATCC 29213
parameter: Sa42 MIC (µg/mL)

>  <compound>
C[C@H](CC(=O)O)[C@@H]1NC(=O)[C@@H](CO)NC(=O)CNC(=O)[C@H](CC(=O)O)NC(=O)[C@@H](C)NC(=O)[C@H](CC(=O)O)NC(=O)[C@H](CCCN)NC(=O)CNC(=O)[C@@H](NC(=O)[C@H](CC(=O)O)NC(=O)[C@@H](CC(N)=O)NC(=O)[C@H](Cc2c[nH]c3ccccc23)NC(=O)c2cc(-c3ccc(Cl)cc3)cs2)[C@@H](C)OC(=O)[C@H](CC(=O)c2ccccc2N)NC1=O [Compound 70]

>  <measured.number>
8

$$$$
>  <compound>
C[C@H](CC(=O)O)[C@@H]1NC(=O)[C@@H](CO)NC(=O)CNC(=O)[C@H](CC(=O)O)NC(=O)[C@@H](C)NC(=O)[C@H](CC(=O)O)NC(=O)[C@H](CCCN)NC(=O)CNC(=O)[C@@H](NC(=O)[C@H](CC(=O)O)NC(=O)[C@@H](CC(N)=O)NC(=O)[C@H](Cc2c[nH]c3ccccc23)NC(=O)Cc2ccc(-c3ccc(Cl)cc3)cc2)[C@@H](C)OC(=O)[C@H](CC(=O)c2ccccc2N)NC1=O [Compound 65]

>  <measured.number>
2

$$$$

---

Reported Efs201 MIC by item:
# System: Enterococcus faecalis EFS.201 (ATCC 49452)
# Type: cell-based
# stated.conditions: ATCC 49452
parameter: Efs201 MIC

>  <entry.smiles>
CCCCCCCCCCCCC(=O)N[C@@H](Cc1c[nH]c2ccccc12)C(=O)N[C@H](CC(N)=O)C(=O)N[C@@H](CC(=O)O)C(=O)N[C@@H]1C(=O)NCC(=O)N[C@@H](CCCN)C(=O)N[C@@H](CC(=O)O)C(=O)N[C@H](C)C(=O)N[C@@H](CC(=O)O)C(=O)NCC(=O)N[C@H](CO)C(=O)N[C@@H]([C@H](C)CC(=O)O)C(=O)N[C@@H](CC(=O)c2ccccc2N)C(=O)O[C@@H]1C

>  <result>
0.5 µg/mL

$$$$
>  <entry.smiles>
C[C@H](CC(=O)O)[C@@H]1NC(=O)[C@@H](CO)NC(=O)CNC(=O)[C@H](CC(=O)O)NC(=O)[C@@H](C)NC(=O)[C@H](CC(=O)O)NC(=O)[C@H](CCCN)NC(=O)CNC(=O)[C@@H](NC(=O)[C@H](CC(=O)O)NC(=O)[C@@H](CC(N)=O)NC(=O)[C@H](Cc2c[nH]c3ccccc23)NC(=O)CCCCCC2CCCCC2)[C@@H](C)OC(=O)[C@H](CC(=O)c2ccccc2N)NC1=O

>  <result>
1 µg/mL

$$$$

---

Reported Sa278 MIC by item:
# System: Staphylococcus aureus SAU.278, Daptomycin resistant mutant (D10)
# Assay type: cell-based
# stated.conditions: MHBc with 50 mg/L calcium, 18-20 hours at 37° C.

>  <molecule>
CC(C)c1ccc(CCCC(=O)N[C@@H](Cc2c[nH]c3ccccc23)C(=O)N[C@H](CC(N)=O)C(=O)N[C@@H](CC(=O)O)C(=O)N[C@@H]2C(=O)NCC(=O)N[C@@H](CCCN)C(=O)N[C@@H](CC(=O)O)C(=O)N[C@H](C)C(=O)N[C@@H](CC(=O)O)C(=O)NCC(=O)N[C@H](CO)C(=O)N[C@@H]([C@H](C)CC(=O)O)C(=O)N[C@@H](CC(=O)c3ccccc3N)C(=O)O[C@@H]2C)cc1

>  <Sa278 MIC>
32 µg/mL

$$$$
>  <molecule>
CCCCCCCCCOc1ccc(C(=O)N[C@@H](Cc2c[nH]c3ccccc23)C(=O)N[C@H](CC(N)=O)C(=O)N[C@@H](CC(=O)O)C(=O)N[C@@H]2C(=O)NCC(=O)N[C@@H](CCCN)C(=O)N[C@@H](CC(=O)O)C(=O)N[C@H](C)C(=O)N[C@@H](CC(=O)O)C(=O)NCC(=O)N[C@H](CO)C(=O)N[C@@H]([C@H](C)CC(=O)O)C(=O)N[C@@H](CC(=O)c3ccccc3N)C(=O)O[C@@H]2C)cc1

>  <Sa278 MIC>
0.25 µg/mL

$$$$
>  <molecule>
CC(C)C1CCC(CCCC(=O)N[C@@H](Cc2c[nH]c3ccccc23)C(=O)N[C@H](CC(N)=O)C(=O)N[C@@H](CC(=O)O)C(=O)N[C@@H]2C(=O)NCC(=O)N[C@@H](CCCN)C(=O)N[C@@H](CC(=O)O)C(=O)N[C@H](C)C(=O)N[C@@H](CC(=O)O)C(=O)NCC(=O)N[C@H](CO)C(=O)N[C@@H]([C@H](C)CC(=O)O)C(=O)N[C@@H](CC(=O)c3ccccc3N)C(=O)O[C@@H]2C)CC1 (stereo partly drawn)

>  <Sa278 MIC>
2 µg/mL

$$$$
